assay: Identification of proteins required for the processing of the EWS-FLI1 nascent transcript; conditions: TC32 Ewing sarcoma NR0B1-luc vs CMV-luc, 48 h; screened at 20 nM (by protocol);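 also: robust z of luciferase light less the median z of siRNAs with the same seed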
Over roughly 59,000 sequences, the read-out has its median near -0.00055; the lowest 2% begin near -2. This is one part of a sample in which the lowest values are shown more often than they occur.
property.label: seed-corrected z-score

UUUGUUAGGAGCUUGUAGG against C1GALT1C1 yielded seed-corrected z-score of 1.55

* * *

Overview of recorded seed-corrected z-score for various sequences
test: Identification of proteins required for the processing of the EWS-FLI1 nascent transcript; conditions: TC32 Ewing sarcoma NR0B1-luc vs CMV-luc (EWS-FLI1 target promoter against control promoter), 48 h; screened at 20 nM (by protocol);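 also: robust z of luciferase light less the median z of siRNAs with the same seed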
Whole data set: some 59,000 sequences, median the read-out near -0.00055, cut for the lowest 2% near -2. This excerpt belongs to a sample that is enriched for the lowest values.
Respond using a number only.

Completed entries (count: 6):
>>> result("UCACCUUGAAGCUAUAACC against ERCC3")
0.757
>>> result("UUUGAUUCUACUUCAAAAC against CBX3P2")
0.167
>>> result("AUCUGCAUAAUGCACAUUC against SLC15A5")
-2.92
>>> result("UAAUGUCCCAAUCGUAUUG against UXS1")
0.872
>>> result("UACUGGUCCACGGAGAUUU against CSPG4")
0.0797
>>> result("AAUACCUCAACAUUGAUCC against LILRA6")
0.22

Alright, here's another sequence for you.
seed-corrected z-score measured on UUUCCGUACAUGAAGCAGC against AGBL5 = -0.0403

// data source = PubChem BioAssay AID1159506
